Values from patent US9955691B2

Test system: Puccinia triticina
Assay: Fungicidal activity: Wheat Brown Rust (PUCCRT)
Type: in vivo
Settings: 24 h, High Volume (100 ppm), 1 Day Protectant, read-out: PUCCRT 1 DP disease control
QUANTITY KIND: pest or weed control at 100 µg/mL

>>> result("COc1ccnc(C(=O)N[C@H]2COC[C@H](Cc3ccccc3)[C@@H](Cc3ccccc3)[C@@H](C)OC2=O)c1O [compound 111]")
"> 70%"

Kindly give each listed record's pest or weed control at 100 µg/mL.
1. COc1ccnc(C(=O)N[C@H]2COC[C@H](CC3CCCCC3)[C@@H](CC3CCCCC3)[C@H](C)OC2=O)c1OCOC(C)=O [compound 10]
2. COc1ccnc(C(=O)N[C@H]2COC[C@H](Cc3ccccc3)[C@@H](CCC(C)C)[C@H](C)OC2=O)c1O [compound 148]
3. COc1ccnc(C(=O)N[C@H]2COC[C@@H]3CCCC[C@H]3[C@@H](C)OC2=O)c1O [compound 114]
4. COc1ccnc(C(=O)N[C@H]2COC[C@H](Cc3ccc(Cl)cc3)[C@@H](CC(C)C)[C@H](C)OC2=O)c1O [compound 145]
5. COc1ccnc(C(=O)N[C@H]2COC[C@H](c3ccccc3)[C@@H](c3ccccc3)[C@H](C)OC2=O)c1OCOC(C)=O [compound 7]

Result:
["> 70%", "< 70%", "> 70%", "> 70%", "> 70%"]

###

Record form. Attribute: pest or weed control at 121.5 g/ha. Fill in for each entry.
System: Mycosphaerella graminicola; Anamorph: Septoria tritici
Experiment: Fungicidal activity: Leaf Blotch of Wheat (SEPTTR)
Assay type: in vivo
Conditions: Zymoseptoria tritici, 24 h; Low Volume (121.5 g/H), 1 Day Protectant, wheat leaf blotch; read-out: SEPTTR 1 DP disease control

Worked cases, pest or weed control at 121.5 g/ha given:
>>> result("CCOCC(=O)OCOc1c(OC)ccnc1C(=O)N[C@H]1COC[C@H](CCC(C)C)[C@@H](CCc2ccccc2)[C@H](C)OC1=O")
"> 70%"
>>> result("COc1ccnc(C(=O)N[C@H]2COC[C@H](Cc3ccccc3)[C@@H](CCC(C)C)[C@H](C)OC2=O)c1OC(C)=O")
"> 70%"
>>> result("COc1ccnc(C(=O)N[C@H]2COC[C@H](CCc3ccccc3)[C@@H](CCc3ccccc3)[C@H](C)OC2=O)c1OCOC(C)=O")
"> 70%"
>>> result("COc1ccnc(C(=O)N[C@H]2COC[C@H](Cc3ccc(Cl)cc3)[C@@H](Cc3ccc(OC(F)(F)F)cc3)[C@H](C)OC2=O)c1OCOC(C)=O")
"> 70%"
>>> result("COc1ccnc(C(=O)N[C@H]2COC[C@H](Cc3ccccc3)[C@@H](c3ccccc3)[C@H](C)OC2=O)c1OCOC(C)=O")
"> 70%"

Could you report pest or weed control at 121.5 g/ha for every entry in the following list?
1. CCC[C@H]1COC[C@H](NC(=O)c2nccc(OC)c2OCOC(=O)COCC)C(=O)O[C@@H](C)[C@@H]1Cc1ccccc1
2. COc1ccnc(C(=O)N[C@H]2COC[C@H](CC3CC3)[C@@H](Cc3ccccc3)[C@H](C)OC2=O)c1OCOC(=O)C(C)C

Result:
> 70%
> 70%

###

Test system: Mycosphaerella graminicola; Anamorph: Septoria tritici
Experiment: Fungicidal activity: Leaf Blotch of Wheat (SEPTTR)
Assay type: in vivo
Conditions: Zymoseptoria tritici, 72 h; High Volume (100 ppm), 3 Day Curative, wheat leaf blotch; read-out: SEPTTR 3 DC disease control
QUANTITY KIND: pest or weed control at 100 µg/mL

Some solved cases for reference:
>>> result("COc1ccnc(C(=O)N[C@H]2COC[C@H](Cc3ccccc3)[C@@H](COCC(C)C)[C@H](C)OC2=O)c1O")
"> 70%"
>>> result("CCCC[C@@H]1[C@@H](Cc2ccccc2)COC[C@H](NC(=O)c2nccc(OC)c2OCOC(C)=O)C(=O)O[C@H]1C")
"< 70%"
>>> result("COc1ccnc(C(=O)N[C@H]2COC[C@H](CCCc3ccccc3)[C@@H](CC(C)C)[C@H](C)OC2=O)c1O")
"> 70%"

// for each compound below, give its pest or weed control at 100 µg/mL
1. CCCC[C@@H]1[C@@H](Cc2ccccc2)COC[C@H](NC(=O)c2nccc(OC)c2O)C(=O)O[C@H]1C
2. COc1ccnc(C(=O)N[C@H]2COC[C@H](CC3CC3)[C@@H](c3ccccc3)[C@H](C)OC2=O)c1O
3. COc1ccnc(C(=O)N[C@@H]2COC[C@@H](Cc3ccccc3)[C@H](COCC(C)C)[C@@H](C)OC2=O)c1O
4. CCCC[C@@H]1[C@@H](Cc2ccc(C(F)(F)F)cc2)COC[C@H](NC(=O)c2nccc(OC)c2O)C(=O)O[C@H]1C

Result:
1: > 70%; 2: > 70%; 3: < 70%; 4: < 70%
